B1: TRIM63 (parent)
chain: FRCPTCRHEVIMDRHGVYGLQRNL

Variants of: B1
Test: protein stability index of a GFP-peptide fusion (GPS, HEK-293T) (PSI 1-6); higher = more stable;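 note: lentivirally expressed fusions sorted by FACS into six bins by GFP to DsRed ratio, PSI derived from sequencing read proportions per bin multiplied by bin number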
Conditions: c terminus: a fixed tail appended
Criterion: protein stability index meeting or surpassing 2. Met: Met. Not met: Not met.

Check out these entries, answers already filled in.
Decide: protein stability index of `F1C` >= 2?
Met

Decide: protein stability index of `Q21Y` >= 2?
Met

Decide: protein stability index of `L24V` >= 2?
Met

Decide: protein stability index of `V17L` >= 2?
Met

New cases:
Decide: protein stability index of `G16I` >= 2?
Met

Decide: protein stability index of `C6D` >= 2?
Met

Decide: protein stability index of `N23V` >= 2?
Met

Decide: protein stability index of `H8T` >= 2?
Met

Decide: protein stability index of `M12T` >= 2?
Met

Data credit: the supplement of paper PMC10567573
